Can you tell me Ki for the items I'm about to list?
# measuredTarget: hMOR-1 (Homo sapiens, UniProt P35372)
# Construct: purchased Amersham Biosciences; host or cells: stably transfected CHO cells (membrane preparation)
# Sequence (P35372 whole entry): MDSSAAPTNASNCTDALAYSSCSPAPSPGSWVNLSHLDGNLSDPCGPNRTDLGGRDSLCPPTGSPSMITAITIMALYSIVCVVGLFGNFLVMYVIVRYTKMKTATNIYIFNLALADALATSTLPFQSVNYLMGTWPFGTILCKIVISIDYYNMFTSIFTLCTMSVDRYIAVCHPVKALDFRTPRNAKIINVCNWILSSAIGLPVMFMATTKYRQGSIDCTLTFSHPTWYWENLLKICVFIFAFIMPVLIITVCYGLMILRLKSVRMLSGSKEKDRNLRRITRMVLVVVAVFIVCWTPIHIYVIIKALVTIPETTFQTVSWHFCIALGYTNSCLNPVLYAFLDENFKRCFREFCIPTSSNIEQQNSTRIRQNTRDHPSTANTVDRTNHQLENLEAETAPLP
# testDetails: Opioid receptor competitive binding assay, MOR (3H-DAMGO)
# measurementSetup: Ki MOR, Table 4; 3H-DAMGO, hMOR-1 stably transfected into CHO cells; errors 95% confidence interval
Kindly answer with a numeric value in nM, unit omitted.

Input line: Report Ki on hMOR-1 (Homo sapiens, UniProt P35372) for this entry: Cc1cc(O)cc(C)c1CC(N)C(O)C/C=C/C(O)C(Cc1ccccc1)C(=O)NCCc1ccccc1 (single isomer, unassigned) [(S,S,S,R)-26]
Output line: 0.29

Input line: Please tell me the measured Ki for Cc1cc(O)cc(C)c1CC(N)C(O)C/C=C/C(O)C(Cc1ccccc1)C(=O)OC(CO)Cc1ccccc1 [(S,S,S,R)-30] ; system: hMOR-1 (Homo sapiens, UniProt P35372).
Output line: 0.44

Input line: With hMOR-1 (Homo sapiens, UniProt P35372) as the test system, provide measured Ki for this compound: NC(=O)[C@H](Cc1ccccc1)NC(=O)[C@H](Cc1ccccc1)NC(=O)[C@H]1CCCN1C(=O)[C@@H](N)Cc1ccc(O)cc1 [Compound 1, Endomorphin-2, reference compound]
Output line: 0.69

Input line: Param request: Ki | system hMOR-1 (Homo sapiens, UniProt P35372) | item Cc1cc(O)cc(C)c1CC(N)C(O)C/C=C/C(O)C(Cc1ccccc1)C(=O)NC(Cc1ccccc1)C(N)=O (single isomer, unassigned) [(S,R,S,R)-25]
Output line: 1.2
